// data source = patent US20110046185A1

Biological target: hCB1R (Homo sapiens, UniProt P21554)
Sequence (P21554 whole entry): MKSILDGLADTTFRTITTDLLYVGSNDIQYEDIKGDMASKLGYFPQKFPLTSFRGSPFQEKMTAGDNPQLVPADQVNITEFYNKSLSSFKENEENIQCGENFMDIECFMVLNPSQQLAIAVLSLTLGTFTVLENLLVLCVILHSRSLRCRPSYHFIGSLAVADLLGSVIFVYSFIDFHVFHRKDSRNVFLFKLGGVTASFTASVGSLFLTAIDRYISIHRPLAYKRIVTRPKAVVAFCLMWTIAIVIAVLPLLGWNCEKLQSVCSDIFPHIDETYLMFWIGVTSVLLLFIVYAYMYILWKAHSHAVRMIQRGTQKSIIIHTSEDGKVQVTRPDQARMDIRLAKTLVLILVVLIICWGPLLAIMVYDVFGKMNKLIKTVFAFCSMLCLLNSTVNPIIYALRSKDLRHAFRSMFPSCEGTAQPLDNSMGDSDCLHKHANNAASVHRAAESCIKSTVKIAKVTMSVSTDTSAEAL
Assay: Binding to the CB1 receptor ([3H]-SR141716A displacement, CHO-K1/cannabinoid CB1 protein)
Set-up: expressed in transfected cells

{"smilesRepresentation": "COC(=O)c1ccc(Oc2ccccc2CN2C(=O)N(c3ccc(C#N)c(C(F)(F)F)c3)C(=O)C2(C)C)cc1", "Ki": "22 nM"}
{"smilesRepresentation": "CC1(C)C(=O)N(c2ccc(C#N)c(C(F)(F)F)c2)C(=O)N1Cc1ccccc1Sc1ccc(Cl)cc1", "Ki": "44 nM"}

---

Biological target: hCB1R (Homo sapiens)
Assay: In vitro functional FLIPR assay with recombinant HEK293 cells, cannabinoid 1 receptor
Conditions: recombinant HEK293 cells expressing CB1 and Galpha16; Ca2+ change vs reference agonist
Reported values of IC50 for individual entries
testReadout: IC50 (nM)

{"molecule": "CC1(C)C(=O)N(c2ccnc(Cl)c2)C(=O)N1Cc1ccccc1Oc1ccccc1 [Example 82]", "testValue": 100}
{"molecule": "COC(=O)c1ccc(Oc2ccccc2CN2C(=O)N(c3ccc(C#N)c(C(F)(F)F)c3)C(=O)C2(C)C)cc1 [Example 96]", "testValue": 152}
{"molecule": "CC1(C)C(=O)N(c2ccc(C#N)c(C(F)(F)F)c2)C(=O)N1Cc1ccccc1Oc1ccc(C(N)=O)cc1 [Example 98]", "testValue": 507}
